Just for reference, patent US20240207264A1 is where these values come from.

Experiment: PK study, single PO dose, mice
Type: in vivo
Details: male, CD-1, mouse, plasma, 30 mg/kg, male CD-1 mice, PO 30 mg/kg, Suspension A (SDD)
reported.endpoint: AUC(0-inf) (µg·h/mL)

[[record]]
input_smiles = "CC(C)(c1ccc(OCc2ccnc(NS(C)(=O)=O)n2)cc1)c1cc(Cl)c(OCCCl)c(C#N)c1"
reading = 604


====

Assay: PK study, single PO dose, mice
Type: in vivo
Details: male, CD-1, mouse, plasma, 90 mg/kg, male CD-1 mice, PO 90 mg/kg, Suspension A (SDD)
Method: A single PO dose of Compound A in different doses in solid dispersion and at 30 mg/kg dose of Compound A in solution were administered to male CD-1 mice. Mean plasma of Compound A was measured over 24 hour period after administration of Compound A (FIG. 15C) and PK parameters were determined (Table 31).
reported.endpoint: AUC(0-t) (µg·h/mL)

[[record]]
input_smiles = "CC(C)(c1ccc(OCc2ccnc(NS(C)(=O)=O)n2)cc1)c1cc(Cl)c(OCCCl)c(C#N)c1"
unit_label = "µg·h/mL"
reading = 1570


====

Test: PK study, single PO dose, dogs
Type: in vivo
Conditions: male, Beagle, dog, plasma, 100 mg/kg, PO 100 mg/kg, Suspension A (SDD), read-out: T½ (converted)
reported.endpoint: half-life

[[record]]
compound = "CC(C)(c1ccc(OCc2ccnc(NS(C)(=O)=O)n2)cc1)c1cc(Cl)c(OCCCl)c(C#N)c1 [Compound A]"
reported_endpoint = "half-life"
reading = "24 h"


====

Test: PK study, single PO dose, mice
Assay type: in vivo
Details: male, CD-1, mouse, plasma, 30 mg/kg, male CD-1 mice, PO 30 mg/kg, Solution (9% DMSO, 9% NMP, 27% solutol, 55% PEG400)
reported.endpoint: Cmax

[[record]]
input_smiles = "CC(C)(c1ccc(OCc2ccnc(NS(C)(=O)=O)n2)cc1)c1cc(Cl)c(OCCCl)c(C#N)c1"
reading = "32000 ng/mL"


====

Assay: PK study, single PO dose, dogs
Format: in vivo
Settings: male, Beagle, dog, plasma, 50 mg/kg, PO 50 mg/kg, Suspension A (SDD)
reported.endpoint: Cmax (µg/mL)

[[record]]
compound = "CC(C)(c1ccc(OCc2ccnc(NS(C)(=O)=O)n2)cc1)c1cc(Cl)c(OCCCl)c(C#N)c1 [Compound A]"
reported_endpoint = "Cmax"
reading = 55.5


====

Experiment: PK study, single PO dose, mice
Assay type: in vivo
Details: male, CD-1, mouse, plasma, 30 mg/kg, male CD-1 mice, PO 30 mg/kg, Suspension A (SDD)
reported.endpoint: AUC(0-t)

[[record]]
input_smiles = "CC(C)(c1ccc(OCc2ccnc(NS(C)(=O)=O)n2)cc1)c1cc(Cl)c(OCCCl)c(C#N)c1"
reading = "565 µg·h/mL"


====

Experiment: Phase I clinical study, PK
Format: in vivo, human
Conditions: male, human, in vivo, po, 200 mg/day, patients, 200 mg/day oral SDD with HPMCAS-H, Day 28, N 3
reported.endpoint: Cmax (ng/mL)

[[record]]
input_smiles = "CC(C)(c1ccc(OCc2ccnc(NS(C)(=O)=O)n2)cc1)c1cc(Cl)c(OCCCl)c(C#N)c1"
reading = 8020


====

Assay: PK study, single PO dose, dogs
Assay type: in vivo
Details: male, Beagle, dog, plasma, 100 mg/kg, PO 100 mg/kg, Suspension A (SDD)
reported.endpoint: Tmax

[[record]]
compound = "CC(C)(c1ccc(OCc2ccnc(NS(C)(=O)=O)n2)cc1)c1cc(Cl)c(OCCCl)c(C#N)c1 [Compound A]"
reading = "5.3 h"

